# assay_notes: chemical genetic growth profiling, strain panel (AID 1159580);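 further: tested at 20 µM; growth read once vehicle control cultures reached saturation at 30 °C; lower values mean less growth of the strain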
# particulars: S. cerevisiae deletion strains, growth OD, locus YDR297W, strain sur2
Hit rate of the full screen: of about 5,500 compounds, about 2,000 (36%) were called active. Not shown: some 18% with an inconclusive outcome. No stated cut-off is given here; in the data, active means normalized growth mostly below about 0.91 (no sharp cut-off); inconclusive means no clear call, values can overlap the other calls; inactive means mostly above about 0.92. The list shows a part of the results.
Outcome codes: true (active), false (inactive)

{"smiles_repr": "COc1ccc(-c2cc(=O)c3ccccc3o2)cc1OC", "assigned_category": "false"}
{"smiles_repr": "CCCCCCCCCc1ccc(O)cc1", "assigned_category": "true"}
{"smiles_repr": "CC(C)Oc1ccc2c(=O)cc(-c3ccccc3)oc2c1", "assigned_category": "false"}
{"smiles_repr": "CN(C)CC/C=C1/c2ccccc2COc2ccccc21", "assigned_category": "false"}
{"smiles_repr": "COc1ccc(-c2cc(=O)c3ccccc3o2)cc1", "assigned_category": "true"}
{"smiles_repr": "CN(C)CCC=C1c2ccccc2C=Cc2ccccc21", "assigned_category": "false"}
{"smiles_repr": "CCCCCCc1ccc(O)cc1O", "assigned_category": "false"}
{"smiles_repr": "NCCc1ccc(O)c(O)c1", "assigned_category": "false"}
{"smiles_repr": "CC(=O)O.CC(=O)O.[Cd]", "assigned_category": "true"}

###

# assay_notes: chemical genetic growth profiling, strain panel (AID 1159580);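 further: tested at 20 µM; growth read once vehicle control cultures reached saturation at 30 °C; lower values mean less growth of the strain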
# particulars: S. cerevisiae deletion strains, growth OD, locus YHR013C, strain ard1
Out of some 5,500 compounds screened, about 2,000 (36%) were called active. Another 18% or so got no clear call; they are omitted. No stated cut-off is given here; in the data, active means normalized growth mostly below about 0.91 (no sharp cut-off); inconclusive means no clear call, values can overlap the other calls; inactive means mostly above about 0.92. The list shows a part of the results.
Outcome codes: active, inactive

{"compound": "N[C@@H]1CONC1=O", "assigned_category": "inactive"}
{"compound": "CCCCOc1cc(CC2CNC(=O)N2)ccc1OC (stereo not drawn)", "assigned_category": "inactive"}
{"compound": "CC(=O)Oc1cc(-c2coc3cc(OC(C)=O)c(OC(C)=O)c(OC(C)=O)c3c2=O)cc(OC(C)=O)c1OC(C)=O", "assigned_category": "inactive"}
{"compound": "COc1cccc2c1cc([N+](=O)[O-])c1c(C(=O)O)cc3c(c12)OCO3", "assigned_category": "inactive"}
{"compound": "O=C1CN2Cc3c(ccc(Cl)c3Cl)N=C2N1", "assigned_category": "inactive"}
{"compound": "C/C(=C\\C(=O)OCCCCCCCCC(=O)O)C[C@@H]1OC[C@H](C[C@@H]2O[C@H]2[C@@H](C)[C@H](C)O)[C@@H](O)[C@H]1O", "assigned_category": "inactive"}
{"compound": "OC1C(O)C(O)C(O)C(O)C1O (stereo not drawn)", "assigned_category": "inactive"}
{"compound": "CC(C)Oc1ccc2c(=O)cc(-c3ccccc3)oc2c1", "assigned_category": "inactive"}
{"compound": "CC(C)c1ccc2c(c1O)CC[C@H]1C3=C(CC[C@]21C)C(=O)OC3", "assigned_category": "inactive"}
{"compound": "CN1CCN2c3ccccc3Cc3ccccc3C2C1 (stereo not drawn)", "assigned_category": "inactive"}
{"compound": "COc1ccc(-c2cc(=O)c3ccccc3o2)cc1", "assigned_category": "active"}
{"compound": "CCCCCCCCCCCCCCCC[n+]1ccccc1", "assigned_category": "active"}
{"compound": "NCCc1ccc(O)cc1", "assigned_category": "inactive"}
{"compound": "O=C1CCc2cc(OCCCCc3nnnn3C3CCCCC3)ccc2N1", "assigned_category": "inactive"}
{"compound": "COc1ccc(C(=O)/C=C/c2ccccc2)cc1", "assigned_category": "inactive"}
{"compound": "CN1CCOC(c2ccccc2)c2ccccc2C1 (stereo not drawn)", "assigned_category": "inactive"}
{"compound": "CCCCCCCCCc1ccc(O)cc1", "assigned_category": "active"}
{"compound": "COc1ccc(-c2coc3cc(OC(C)=O)cc(OC(C)=O)c3c2=O)cc1", "assigned_category": "inactive"}
